assay: in vivo; conditions: rat, po
Entries annotated with measured TD50
attribute-measured: TD50

{"compound": "COC(=O)C1C(=O)C=C(NCc2ccc(F)cc2)CC1C (centres unmarked) [Compound 21]", "endpoint-result": "> 230 mg/kg"}
{"compound": "COC(=O)C1C(=O)C=C(Nc2ccc(Cl)cc2)CC1C (centres unmarked) [Compound 27]", "endpoint-result": "> 380 mg/kg"}
{"compound": "O=C1NC(=O)C(c2ccccc2)(c2ccccc2)N1 [phenytoin, reference compound]", "endpoint-result": "> 3000 mg/kg"}
{"compound": "CC1(C)CC(=O)C=C(Nc2ccccc2)C1 [Compound 36]", "endpoint-result": "> 250 mg/kg"}
{"compound": "COC(=O)C1C(=O)C=C(NCc2ccccc2)CC1C (centres unmarked) [Compound 12]", "endpoint-result": "> 500 mg/kg"}

====

test system: Maximal electroshock seizures; assay: Phase VI oral MES test, rats; format: in vivo; details: Rattus norvegicus; oral, 50 mg/kg, 2.00 h; read-out: MES, animals protected/tested (converted)

{"molecule": "CCOC(=O)C1C(=O)C=C(Nc2ccc(CC)cc2)CC1C (centres unmarked) [Compound 126]", "responders at 50 mg/kg": "75%"}
{"molecule": "COC(=O)C1C(=O)C=C(Nc2ccc(Cl)cn2)CC1C (centres unmarked) [Compound 116]", "responders at 50 mg/kg": "100%"}
{"molecule": "O=C1C=C(Nc2ccc(Cl)cc2)CC1 [Compound 152]", "responders at 50 mg/kg": "75%"}
{"molecule": "CC1(C)CC(=O)C=C(Nc2ccc(N)cc2)C1 [Compound 142]", "responders at 50 mg/kg": "0%"}
{"molecule": "CCOC(=O)C1C(=O)C=C(Nc2ccc(C(C)(C)C)cc2)CC1C (centres unmarked) [Compound 130]", "responders at 50 mg/kg": "75%"}
{"molecule": "COC(=O)C1C(=O)C=C(Nc2ccc(C(F)(F)F)cc2)CC1(C)C (centres unmarked) [Compound 121]", "responders at 50 mg/kg": "100%"}
{"molecule": "CCOC(=O)C1C(=O)C=C(Nc2ccc(C(F)(F)F)cc2)CC1C (centres unmarked) [Compound 131]", "responders at 50 mg/kg": "100%"}
{"molecule": "CCOC(=O)C1C(=O)C=C(Nc2ccc(C)cc2)CC1C (centres unmarked) [Compound 125]", "responders at 50 mg/kg": "100%"}
{"molecule": "CC(C)(C)c1ccc(NC2=CC(=O)CCC2)cc1 [Compound 150]", "responders at 50 mg/kg": "25%"}
{"molecule": "CCOC(=O)C1C(=O)C=C(Nc2ccc(Br)cc2)CC1C (centres unmarked) [Compound 123]", "responders at 50 mg/kg": "100%"}
{"molecule": "CC1CC(=O)C=C(Nc2ccc(Cl)cc2)C1 (centres unmarked) [Compound 146]", "responders at 50 mg/kg": "100%"}
{"molecule": "O=C1C=C(Nc2ccc(Cl)cc2)CCC1 [Compound 147]", "responders at 50 mg/kg": "25%"}
{"molecule": "CC1(C)CC(=O)C=C(Nc2ccc(C(F)(F)F)cc2)C1 [Compound 144]", "responders at 50 mg/kg": "25%"}
{"molecule": "COC(=O)C1C(=O)C=C(Nc2ccc(Cl)cc2)CC1(C)C (centres unmarked) [Compound 119]", "responders at 50 mg/kg": "100%"}
{"molecule": "COC(=O)C1C(=O)C=C(Nc2ccc(C(F)(F)F)cc2)CC1C (centres unmarked) [Compound 115]", "responders at 50 mg/kg": "100%"}
{"molecule": "CCOC(=O)C1C(=O)C=C(Nc2ccc(F)cc2)CC1C (centres unmarked) [Compound 124]", "responders at 50 mg/kg": "100%"}
{"molecule": "COC(=O)C1C(=O)C=C(Nc2ccc(Br)cc2)CC1C (centres unmarked) [Compound 113]", "responders at 50 mg/kg": "100%"}
{"molecule": "CCOC(=O)C1C(=O)C=C(Nc2ccc(Cl)cc2)CC1C (centres unmarked) [Compound 122]", "responders at 50 mg/kg": "100%"}
{"molecule": "O=C1C=C(NCc2ccccc2)CCC1 [Compound 148]", "responders at 50 mg/kg": "50%"}
{"molecule": "COC(=O)C1C(=O)C=C(NCc2ccc(F)cc2)CC1C (centres unmarked) [Compound 21]", "responders at 50 mg/kg": "50%"}

====

experiment: in vivo; conditions: rat, ip

{"compound": "COC(=O)C1C(=O)C=C(Nc2ccc(C(F)(F)F)cc2)CC1C (stereo not shown) [Compound 115]", "TD50": "> 64 mg/kg"}

====

Assay: in vivo
Settings: mouse, in vivo, ip
Procedure: The first phase of the ADD Program involved performing tests on male Carworth Farms #1 mice. […] Three tests were performed: In the second phase of the ADD program protocol, estimates of anticonvulsant activity and neurotoxicity are quantified. The median effective dose (ED50) in the MES, sc Met, and rotorod test is determined. […] The rotorod ED50 is determined at the time of the peak neurologic deficit.
Entries annotated with measured TD50
attribute-measured: TD50 (mg/kg)

{"compound": "COC(=O)C1C(=O)C=C(Nc2ccc(Cl)cc2)CC1C (stereo not drawn) [Compound 27]", "relation-symbol": "=", "endpoint-result": 255}
{"compound": "CC1(C)CC(=O)C=C(Nc2ccccc2)C1 [Compound 36]", "relation-symbol": "=", "endpoint-result": 233}
{"compound": "COC(=O)C1C(=O)C=C(NCc2ccccc2)CC1C (stereo not drawn) [Compound 12]", "relation-symbol": ">", "endpoint-result": 500}

====

test system: Maximal electroshock seizures; experiment: Phase VI oral MES test, rats; type: in vivo; details: Rattus norvegicus; oral, 50 mg/kg, 4.00 h; read-out: MES, animals protected/tested (converted)
Entries annotated with measured responders at 50 mg/kg

{"compound": "CCOC(=O)C1C(=O)C=C(Nc2ccc(Br)cc2)CC1C (centres unmarked)", "responders at 50 mg/kg": "100%"}
{"compound": "CC(C)(C)c1ccc(NC2=CC(=O)CCC2)cc1", "responders at 50 mg/kg": "50%"}
{"compound": "O=C1C=C(NCc2ccccc2)CCC1", "responders at 50 mg/kg": "75%"}
{"compound": "O=C1C=C(Nc2ccc(Cl)cc2)CC1", "responders at 50 mg/kg": "50%"}
{"compound": "O=C1C=C(Nc2ccc(Cl)cc2)CCC1", "responders at 50 mg/kg": "25%"}
{"compound": "COC(=O)C1C(=O)C=C(Nc2ccc(Cl)cc2)CC1(C)C (centres unmarked)", "responders at 50 mg/kg": "100%"}
{"compound": "COC(=O)C1C(=O)C=C(Nc2ccc(Cl)cn2)CC1C (centres unmarked)", "responders at 50 mg/kg": "100%"}
{"compound": "COC(=O)C1C(=O)C=C(Nc2ccc(C(F)(F)F)cc2)CC1C (centres unmarked)", "responders at 50 mg/kg": "100%"}
{"compound": "CC1(C)CC(=O)C=C(Nc2ccc([N+](=O)[O-])cc2)C1", "responders at 50 mg/kg": "0%"}
{"compound": "CCOC(=O)C1C(=O)C=C(Nc2ccc(CC)cc2)CC1C (centres unmarked)", "responders at 50 mg/kg": "50%"}
{"compound": "CCOC(=O)C1C(=O)C=C(Nc2ccc(F)cc2)CC1C (centres unmarked)", "responders at 50 mg/kg": "75%"}
{"compound": "CC1(C)CC(=O)C=C(Nc2ccc(N)cc2)C1", "responders at 50 mg/kg": "25%"}
{"compound": "CC1(C)CC(=O)C=C(Nc2ccc(C(F)(F)F)cc2)C1", "responders at 50 mg/kg": "100%"}
{"compound": "CCOC(=O)C1C(=O)C=C(Nc2ccc(C)cc2)CC1C (centres unmarked)", "responders at 50 mg/kg": "100%"}
{"compound": "CCOC(=O)C1C(=O)C=C(Nc2ccc(C(C)(C)C)cc2)CC1C (centres unmarked)", "responders at 50 mg/kg": "25%"}
{"compound": "COC(=O)C1C(=O)C=C(NCc2ccccc2)CC1C (centres unmarked)", "responders at 50 mg/kg": "50%"}
{"compound": "O=C1C=C(Nc2ccc(C(F)(F)F)cc2)CCC1", "responders at 50 mg/kg": "0%"}
{"compound": "CCOC(=O)C1C(=O)C=C(Nc2ccc([N+](=O)[O-])cc2)CC1C (centres unmarked)", "responders at 50 mg/kg": "25%"}
{"compound": "COC(=O)C1C(=O)C=C(Nc2ccc(F)cc2)CC1C (centres unmarked)", "responders at 50 mg/kg": "100%"}
{"compound": "COC(=O)C1C(=O)C=C(NCCc2ccccc2)CC1C (centres unmarked)", "responders at 50 mg/kg": "25%"}
{"compound": "COC(=O)C1C(=O)C=C(Nc2ccc(Br)cc2)CC1C (centres unmarked)", "responders at 50 mg/kg": "100%"}
{"compound": "COC(=O)C1C(=O)C=C(NCc2ccc(F)cc2)CC1C (centres unmarked)", "responders at 50 mg/kg": "75%"}
{"compound": "CC1CC(=O)C=C(Nc2ccc(Cl)cc2)C1 (centres unmarked)", "responders at 50 mg/kg": "50%"}
